Biological target: T1, Recombinant DR3-Fc (R&D Systems, cat. #943-D3) (UniProt Q93038 25-199, limits assumed)
T1 construct: dimeric MW~92 kDa; also called DR3 receptor; Fc-DR3; not shown: Fc part of the bought fusion
T1 sequence (looked up): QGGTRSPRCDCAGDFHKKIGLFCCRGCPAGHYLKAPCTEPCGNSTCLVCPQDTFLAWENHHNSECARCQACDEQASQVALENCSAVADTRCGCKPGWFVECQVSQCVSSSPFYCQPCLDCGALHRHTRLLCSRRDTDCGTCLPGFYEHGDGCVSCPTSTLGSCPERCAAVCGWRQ
Test: ELISA, DR3-Fc immobilized
REPORTED_ENDPOINT: Rel EC50

Answered cases to consult:
>>> result("TL1W39 (His-TEV-TL1A L123G) (ligand, also called TL1W39 (L123G)) HHHHHHENLYFQGLKGQEFAPSHQQVYAPLRADGDKPRAHLTVVRQTPTQHFKNQFPALHWEHEGGLAFTKNRMNYTNKFLLIPESGDYFIYSQVTFRGMTSECSEIRQAGRPNKPDSITVVITKVTDSYPEPTQLLMGTKSVCEVGSNWFQPIYLGAMFSLQEGDKLMVNVSDISLVDYTKEDKTFFGAFLL")
"7 ratio (head: nM)"
>>> result("TL1W28 (His-TEV-hTL1A 72-251 E190G) (ligand, also called TL1W28 (E190G)) HHHHHHENLYFQGLKGQEFAPSHQQVYAPLRADGDKPRAHLTVVRQTPTQHFKNQFPALHWEHELGLAFTKNRMNYTNKFLLIPESGDYFIYSQVTFRGMTSECSEIRQAGRPNKPDSITVVITKVTDSYPGPTQLLMGTKSVCEVGSNWFQPIYLGAMFSLQEGDKLMVNVSDISLVDYTKEDKTFFGAFLL")
"0.9 ratio (head: nM)"

Consider the additional binder presented here.
Give Rel EC50 for the following binder: TL1W45 (His-TEV-TL1A E190F) (ligand, also called TL1W45 (E190F)) HHHHHHENLYFQGLKGQEFAPSHQQVYAPLRADGDKPRAHLTVVRQTPTQHFKNQFPALHWEHELGLAFTKNRMNYTNKFLLIPESGDYFIYSQVTFRGMTSECSEIRQAGRPNKPDSITVVITKVTDSYPFPTQLLMGTKSVCEVGSNWFQPIYLGAMFSLQEGDKLMVNVSDISLVDYTKEDKTFFGAFLL
1.2 ratio (head: nM)

Provenance of the data: patent US20220056104A1
